experiment: Tmax in C57BI/6 male mouse at 10 mg/kg, po; type: ADME, organism-based; conditions: C57BL/6, mouse, in vivo

compound_structure | Tmax, h
COc1cc(N2CCC(N3CCN(C)CC3)CC2)ccc1Nc1ncc2c(n1)N(C)c1sc(C)nc1C(=O)N2C | 4

---

experiment: Volume of distribution at steady-state in C57BI/6 male mouse at 2 mg/kg, iv; assay type: ADME, organism-based; conditions: C57BL/6, mouse, in vivo, read-out: Vdss

compound_structure | Vd, L/kg
COc1cc(N2CCC(N3CCN(C)CC3)CC2)ccc1Nc1ncc2c(n1)N(C)c1sc(C)nc1C(=O)N2C | 4.07

---

assay: Oral bioavailability in C57BI/6 male mouse at 10 mg/kg; type: ADME, organism-based; conditions: C57BL/6, mouse, in vivo
observable: bioavailability (%)

compound_structure | observable | obs_value
COc1cc(N2CCC(N3CCN(C)CC3)CC2)ccc1Nc1ncc2c(n1)N(C)c1sc(C)nc1C(=O)N2C | bioavailability | 18.3

---

assay: Half life in C57BI/6 male mouse at 2 mg/kg, iv; format: ADME, organism-based; conditions: C57BL/6, mouse, in vivo
observable: half-life (h)

compound_structure | observable | obs_value
COc1cc(N2CCC(N3CCN(C)CC3)CC2)ccc1Nc1ncc2c(n1)N(C)c1sc(C)nc1C(=O)N2C | half-life | 5.29

---

target: Focal adhesion kinase 1 (Homo sapiens, UniProt Q05397)
Sequence (Q05397 whole entry): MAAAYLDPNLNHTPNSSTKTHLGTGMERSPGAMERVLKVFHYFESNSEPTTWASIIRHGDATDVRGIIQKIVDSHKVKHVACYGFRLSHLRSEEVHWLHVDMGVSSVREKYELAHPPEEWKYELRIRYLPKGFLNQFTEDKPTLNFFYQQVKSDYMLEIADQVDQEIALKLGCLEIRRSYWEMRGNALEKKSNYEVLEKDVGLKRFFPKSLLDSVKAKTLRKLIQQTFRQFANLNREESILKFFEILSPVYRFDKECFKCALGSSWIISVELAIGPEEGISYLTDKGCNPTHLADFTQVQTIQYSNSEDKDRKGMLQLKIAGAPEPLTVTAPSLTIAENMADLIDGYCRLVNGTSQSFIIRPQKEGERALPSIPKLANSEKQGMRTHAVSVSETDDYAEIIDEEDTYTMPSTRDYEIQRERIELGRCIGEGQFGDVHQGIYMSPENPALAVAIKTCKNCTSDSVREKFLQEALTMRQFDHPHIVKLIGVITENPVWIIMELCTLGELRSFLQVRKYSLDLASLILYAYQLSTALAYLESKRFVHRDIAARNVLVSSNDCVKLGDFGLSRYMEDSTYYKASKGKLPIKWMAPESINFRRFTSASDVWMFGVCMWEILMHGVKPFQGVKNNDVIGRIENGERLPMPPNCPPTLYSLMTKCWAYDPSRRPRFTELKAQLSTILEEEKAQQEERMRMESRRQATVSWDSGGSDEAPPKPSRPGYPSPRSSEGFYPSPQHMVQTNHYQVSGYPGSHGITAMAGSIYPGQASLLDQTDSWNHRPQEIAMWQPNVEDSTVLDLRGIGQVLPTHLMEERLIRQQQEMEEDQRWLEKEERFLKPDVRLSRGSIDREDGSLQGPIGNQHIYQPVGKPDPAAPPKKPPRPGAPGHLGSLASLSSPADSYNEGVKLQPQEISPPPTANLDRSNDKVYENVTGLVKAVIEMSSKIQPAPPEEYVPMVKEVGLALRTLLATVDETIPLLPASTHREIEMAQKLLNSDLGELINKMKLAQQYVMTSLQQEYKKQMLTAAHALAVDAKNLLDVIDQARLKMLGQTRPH
observable: IC50

compound_structure | obs_value
COc1cc(N2CCC(N3CCN(C)CC3)CC2)ccc1Nc1ncc2c(n1)N(C)c1oc(C)nc1C(=O)N2C | 0.525 µM
COc1cc(N2CCC(N3CCN(C)CC3)CC2)ccc1Nc1ncc2c(n1)N(C)c1sc(-c3ccccc3)nc1C(=O)N2C | > 10 µM
COc1cc(N2CCN(C)CC2)ccc1Nc1ncc2c(n1)N(C)c1ccccc1C(=O)N2 | > 10 µM
COc1cc(N2CCN(C)CC2)ccc1Nc1ncc2c(n1)N(C)c1ncsc1C(=O)N2 | > 10 µM

---

tested on: MDA-MB-231; experiment: Antiproliferative activity against human MDA-MB-231 cells cultured as 2D-adherent monolayer assessed as reduction in cell viability by Celltiter-Glo assay; type: functional, cell-based
Activity calls are given as the source filed them. The rule behind the calls is not given here.

compound_structure | subject_of_test | Activity
COc1cc(N2CCC(N3CCN(C)CC3)CC2)ccc1Nc1ncc2c(n1)N(C)c1sc(C)nc1C(=O)N2C | MDA-MB-231 | inactive
COc1cc(N2CCNCC2)ccc1Nc1ncc2c(n1)N(C)c1sc(C)nc1C(=O)N2C | MDA-MB-231 | inactive
COc1cc(C2CCN(C)CC2)ccc1Nc1ncc2c(n1)N(C)c1sc(C)nc1C(=O)N2C | MDA-MB-231 | inactive
CCN1C(=O)c2nc(C)sc2N(C)c2nc(Nc3ccc(N4CCC(N5CCN(C)CC5)CC4)cc3OC)ncc21 | MDA-MB-231 | inactive
COc1cc(N2CCN(C)CC2)ccc1Nc1ncc2c(n1)N(C)c1sc(C)nc1C(=O)N2C | MDA-MB-231 | inactive

---

assay: Cmax in C57BI/6 male mouse at 10 mg/kg, po; assay type: ADME, organism-based; design: route oral, dose 10 mg/kg; conditions: C57BL/6, mouse, in vivo

compound_structure | unit | Cmax
COc1cc(N2CCC(N3CCN(C)CC3)CC2)ccc1Nc1ncc2c(n1)N(C)c1sc(C)nc1C(=O)N2C | nM | 420

Taken from ChEMBL document CHEMBL4673383.
